Recorded values, source patent US12624112.

Recorded kon by entry
Molecular target: T1, Human ST2-his (human, UniProt Q01638-2 19-328, limits assumed)
T1 construct: Expressed in CHO-K1; The printed range starts at Met1; also called human ST2 fused with a 6-histidine tag at the C-terminus
T1 sequence: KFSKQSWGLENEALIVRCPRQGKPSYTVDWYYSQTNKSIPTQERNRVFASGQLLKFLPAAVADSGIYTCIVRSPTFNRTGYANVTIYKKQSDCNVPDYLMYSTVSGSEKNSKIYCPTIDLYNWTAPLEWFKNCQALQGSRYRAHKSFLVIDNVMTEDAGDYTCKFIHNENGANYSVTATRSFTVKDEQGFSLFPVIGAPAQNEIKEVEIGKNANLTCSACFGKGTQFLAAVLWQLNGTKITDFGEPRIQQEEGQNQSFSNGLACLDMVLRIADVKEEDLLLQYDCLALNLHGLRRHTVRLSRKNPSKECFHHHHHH
Assay: SPR Biacore X100, antibody captured on protein A chip, human ST2-his injected, dissociation at pH 5.5
Description: The experiment on the interaction between the anti-human ST2 antibodies and human ST2-his was performed using Biacore X100. Each anti-human ST2 antibody was diluted to 2 µg/mL and captured on the surface of a protein A chip for a capture time of 60 s. […] Association was monitored for 180 s and dissociation was monitored for 700 s, and the sensor surface was regenerated by injecting a solution of glycine at pH 2.0. Kinetic data were analyzed using a simple 1:1 binding model.
# unit: M⁻¹ s⁻¹ | format: bare number

{"columns": ["binder", "recorded_value"],
 "data": [
  ["5888-379-H2L1 (antibody, human IgG4 S228P, kappa, V domains shown, Humanized antibody) VH: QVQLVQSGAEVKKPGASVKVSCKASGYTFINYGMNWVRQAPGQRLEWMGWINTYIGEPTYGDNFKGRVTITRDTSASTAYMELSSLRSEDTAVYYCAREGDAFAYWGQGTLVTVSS VL: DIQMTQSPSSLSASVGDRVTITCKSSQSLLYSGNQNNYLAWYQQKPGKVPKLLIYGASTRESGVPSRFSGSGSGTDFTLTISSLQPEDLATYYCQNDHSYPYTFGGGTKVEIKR", "3.46e+06"],
  ["5888-116-H0L1 (antibody, human IgG4 S228P, kappa, V domains shown, Humanized antibody) VH: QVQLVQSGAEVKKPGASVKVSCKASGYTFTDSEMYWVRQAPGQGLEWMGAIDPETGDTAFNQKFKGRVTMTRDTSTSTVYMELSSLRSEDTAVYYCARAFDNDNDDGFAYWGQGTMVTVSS VL: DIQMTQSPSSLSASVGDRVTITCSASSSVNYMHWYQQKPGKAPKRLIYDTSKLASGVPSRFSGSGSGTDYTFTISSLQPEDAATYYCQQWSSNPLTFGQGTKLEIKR", "2.95e+06"]
]}

Could you now look at the following binder, please?
Prompt: Look up kon: 5887-41-H1L0 (antibody, human IgG4 S228P, kappa, V domains shown, Humanized antibody) VH: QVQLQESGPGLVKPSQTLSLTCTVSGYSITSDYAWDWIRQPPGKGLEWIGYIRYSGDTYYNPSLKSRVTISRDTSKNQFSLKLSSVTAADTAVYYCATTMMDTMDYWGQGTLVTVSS VL: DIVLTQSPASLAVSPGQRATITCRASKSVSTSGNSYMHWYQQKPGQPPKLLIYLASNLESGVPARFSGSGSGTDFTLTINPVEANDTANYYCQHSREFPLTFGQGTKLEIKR
Response: 622000
